assay: Membrane permeability test of cyclic peptides (Caco-2, modified/improved method of WO 2018/124162); conditions: human, Caco-2, Caco-2 (membrane permeability), Table 10, cyclic peptides containing Ser(S-4-F2-Pyrro-Me) (G) or Nva(2-R-4-F2-Pyrro) (H)
*1 amine or outer side, *2 acyl side, *3 side chain or, on linkers, in order; H or OH if unused. Where a SMILES comes first, the peptide text is derived from it. Bridges are numbered along the chain shown (N, C = ends). [ ]: non-standard residue; d: D form. The star is where a group is joined. ξ: configuration not given here. X5 = O=C([C@H](CCC[C@@H]1CC(F)(F)CN1)N[*:1])[*:2]; Pro(4,4-F2)ψ(CH2) = FC1(F)CN[C@H](C*)C1; NMeF = CN[C@@H](Cc1ccccc1)C(=O)O; NMeGABA = CN(CCCC(=O)[*:2])[*:1]; NMeL = CN[C@@H](CC(C)C)C(=O)O; ξIle = CC[C@H](C)C(N)C(=O)O; NMeAbu = CC[C@H](NC)C(=O)O; NMeA = CN[C@@H](C)C(=O)O; Piperidide = C1CCN(*)CC1; NBuGly = CCCCNCC(=O)O; Sar = CNCC(=O)O; tBu = CC(C)(C)*
Task for the reader: assign each of the following compounds its reported Papp.
One number for each entry, in ×10⁻⁶ cm/s.

Ask: For CCCCN1CC(=O)N(C)[C@@H](Cc2ccccc2)C(=O)N(C)[C@@H](CC(C)C)C(=O)N[C@@H](COC[C@@H]2CC(F)(F)CN2)C(=O)N(C)[C@@H](CC(C)C)C(=O)N[C@H](C(=O)N2CCCCC2)CC(=O)N(C)CC(=O)N(C)[C@@H](CC(C)C)C(=O)NC([C@@H](C)CC)C(=O)N(C)[C@@H](CC(C)C)C(=O)N[C@@H]([C@@H](C)O)C1=O (stereo partly drawn) [Compound G07] ([Sar][NMeL][ξIle][NMeL]T[NBuGly][NMeF][NMeL]S(Pro(4,4-F2)ψ(CH2))[NMeL]D-Piperidide; lactam N-11) , what is its reported Papp?
Reply: 0.57

Ask: For CCCCN1CC(=O)N(C)[C@@H](C)C(=O)N[C@@H](CCC[C@@H]2CC(F)(F)CN2)C(=O)N(C)[C@@H](Cc2ccccc2)C(=O)N(C)[C@@H](CC)C(=O)N[C@H](C(=O)N2CCCCC2)CC(=O)N[C@H](CC(C)C)C(=O)N(C)[C@@H](CC(C)C)C(=O)N[C@@H](C(C)C)C(=O)N(C)[C@@H](CC(C)C)C(=O)N[C@@H]([C@@H](C)O)C1=O [Compound H02] ([dL][NMeL]V[NMeL]T[NBuGly][NMeA][X5][NMeF][NMeAbu]D-Piperidide; lactam N-11) , what is its reported Papp?
Reply: 0.14

Ask: For CCCCN1CC(=O)N(C)[C@@H](CC)C(=O)N[C@@H](COC[C@@H]2CC(F)(F)CN2)C(=O)N(C)[C@@H](Cc2ccccc2)C(=O)N(C)[C@@H](CC)C(=O)N[C@H](C(=O)N2CCCCC2)CC(=O)N[C@H](CC(C)C)C(=O)N(C)[C@@H](CC(C)C)C(=O)N[C@@H](C(C)C)C(=O)N(C)[C@@H](CC(C)C)C(=O)N[C@@H]([C@@H](C)O)C1=O [Compound G02] ([dL][NMeL]V[NMeL]T[NBuGly][NMeAbu]S(Pro(4,4-F2)ψ(CH2))[NMeF][NMeAbu]D-Piperidide; lactam N-11) , what is its reported Papp?
Reply: 0.4

Ask: For CCCCN1CC(=O)N(C)[C@@H](CC(C)C)C(=O)N[C@H](C(=O)N2CCCCC2)CC(=O)N(C)[C@@H](CC)C(=O)N[C@@H](CC(C)C)C(=O)N(C)[C@@H](CC(C)C)C(=O)N(C)[C@@H](Cc2ccccc2)C(=O)N[C@@H](CCC[C@@H]2CC(F)(F)CN2)C(=O)N(C)[C@@H](C)C(=O)N(C)[C@@H](CC(C)C)C(=O)N[C@@H]([C@@H](C)O)C1=O [Compound H04] ([NMeAbu]L[NMeL][NMeF][X5][NMeA][NMeL]T[NBuGly][NMeL]D-Piperidide; lactam N-11) , what is its reported Papp?
Reply: 0.93

Ask: For CCCCN1CC(=O)N(C)[C@@H](CC(C)C)C(=O)N[C@H](C(=O)N2CCCCC2)CC(=O)N(C)[C@@H](C)C(=O)N[C@@H](CCC[C@@H]2CC(F)(F)CN2)C(=O)N(C)[C@@H](CC(C)C)C(=O)N(C)[C@@H](C)C(=O)N[C@@H](C(C)C)C(=O)N(C)[C@@H](Cc2ccccc2)C(=O)N(C)[C@@H](CC(C)C)C(=O)N[C@@H]([C@@H](C)O)C1=O [Compound H05] ([NMeA][X5][NMeL][NMeA]V[NMeF][NMeL]T[NBuGly][NMeL]D-Piperidide; lactam N-11) , what is its reported Papp?
Reply: 1.2

Ask: For CC[C@H]1C(=O)N[C@@H](COC(C)(C)C)C(=O)N(C)[C@@H](CC(C)C)C(=O)N[C@@H](COC[C@@H]2CC(F)(F)CN2)C(=O)N(C)[C@@H](CC(C)C)C(=O)N(C)[C@@H](CC(C)C)C(=O)N[C@H](C(=O)N2CCCCC2)CC(=O)N(C)CCCC(=O)N(C)[C@@H](CC(C)C)C(=O)N[C@@H](C(C)C)C(=O)N(C)[C@@H](Cc2ccccc2)C(=O)N1C [Compound G09] ([NMeGABA][NMeL]V[NMeF][NMeAbu]S(tBu)[NMeL]S(Pro(4,4-F2)ψ(CH2))[NMeL][NMeL]D-Piperidide; lactam N-11) , what is its reported Papp?
Reply: 1.2

Ask: For CC[C@H]1C(=O)N(C)[C@@H](Cc2ccccc2)C(=O)N[C@@H](CC(C)C)C(=O)N(C)[C@@H](CC(C)C)C(=O)N(C)[C@@H](CC(C)C)C(=O)N[C@@H](COC[C@@H]2CC(F)(F)CN2)C(=O)N(C)CC(=O)N(C)[C@@H](CC(C)C)C(=O)N[C@H](C(=O)N2CCCCC2)CC(=O)N(C)[C@@H](C)C(=O)N[C@@H](CC(C)C)C(=O)N1C [Compound G10] ([NMeA]L[NMeAbu][NMeF]L[NMeL][NMeL]S(Pro(4,4-F2)ψ(CH2))[Sar][NMeL]D-Piperidide; lactam N-11) , what is its reported Papp?
Reply: 1.1

More entries:
Ask: For CC(C)C[C@H]1C(=O)N[C@@H](C(C)C)C(=O)N(C)[C@@H](Cc2ccccc2)C(=O)N(C)[C@@H](C)C(=O)N[C@@H](COC(C)(C)C)C(=O)N(C)[C@@H](CC(C)C)C(=O)N[C@@H](CCC[C@@H]2CC(F)(F)CN2)C(=O)N(C)[C@@H](CC(C)C)C(=O)N(C)[C@@H](CC(C)C)C(=O)N[C@H](C(=O)N2CCCCC2)CC(=O)N(C)CCCC(=O)N1C [Compound H09] ([NMeGABA][NMeL]V[NMeF][NMeA]S(tBu)[NMeL][X5][NMeL][NMeL]D-Piperidide; lactam N-11) , what is its reported Papp?
Reply: 0.52

---

assay: in vitro; conditions: human, Caco-2, Caco-2 (cm/sec)
Where a SMILES comes first, the peptide text is derived from it. Bridges are numbered along the chain shown (N, C = ends). [ ]: non-standard residue; d: D form. The star is where a group is joined. hhPhe = N[C@@H](CCCc1ccccc1)C(=O)O; NMeF = CN[C@@H](Cc1ccccc1)C(=O)O; NMeL = CN[C@@H](CC(C)C)C(=O)O; Butyl(3S-OH) = C[C@H](O)CC*; NMeV = CN[C@H](C(=O)O)C(C)C; NMeA = CN[C@@H](C)C(=O)O; Piperidide = C1CCN(*)CC1; NBuGly = CCCCNCC(=O)O; Sar = CNCC(=O)O; tBu = CC(C)(C)*
Task for the reader: assign each of the following compounds its reported Papp.
Numbers only, in ×10⁻⁶ cm/s.

Ask: For CCCCN1CC(=O)N(C)[C@@H](C(C)C)C(=O)N[C@@H](COC(C)(C)C)C(=O)N(C)[C@@H](Cc2ccccc2)C(=O)N(C)[C@@H](CC(C)C)C(=O)N[C@H](C(=O)N2CCCCC2)CC(=O)N[C@H](C(C)C)C(=O)N(C)[C@@H](Cc2ccccc2)C(=O)N[C@@H](COCC[C@H](C)O)C(=O)N(C)[C@@H](CC(C)C)C(=O)N[C@@H]([C@@H](C)O)C1=O [AP99] ([dV][NMeF]S(Butyl(3S-OH))[NMeL]T[NBuGly][NMeV]S(tBu)[NMeF][NMeL]D-Piperidide; lactam N-11) , what is its reported Papp?
Reply: 0.86

Here is the next item to consider.
Ask: For CC(C)C[C@H]1C(=O)N[C@H](C(=O)N2CCCCC2)CC(=O)N(C)[C@@H](C)C(=O)N[C@@H](CCCc2ccccc2)C(=O)N(C)[C@@H](CC(C)C)C(=O)N(C)[C@@H](Cc2ccccc2)C(=O)N[C@@H](C)C(=O)N(C)[C@@H](Cc2ccccc2)C(=O)N(C)[C@@H](C(C)C)C(=O)N[C@@H]([C@@H](C)O)C(=O)N(C)CC(=O)N1C [pd191] ([NMeA][hhPhe][NMeL][NMeF]A[NMeF][NMeV]T[Sar][NMeL]D-Piperidide; lactam N-11) , what is its reported Papp?
Reply: 1.5
